// values below are reported koff
Biological target: T1, mouse serum albumin (MSA), full length (mouse, UniProt P07724 25-608)
T1 construct: mature; Immobilized on CM5 chip (SPR) or coated on plates (ELISA); also called mouse albumin; murine serum albumin
Experiment: SPR off-rate, immobilized MSA, 500 nM Adnectin, 25 C
Write down the numeric answer in s⁻¹ and omit the unit.

Here is how some binders turned out for koff.
>>> value_measured("ADX_6727_F06 (L41A/K85T) (designed binder, Full His6-tagged entry) MGVSDVPRDLEVVAATPTSLLISWDAPAVTVRYYRITYGREVQKYSDLGPAYIYQEFTVPGSKSTATISGLKPGVDYTITVYAVTGSGESPASSTPISINYRTEIDKPSQHHHHHH")
0.0055
>>> value_measured("ADX_6727_B01 (K85S) (designed binder, Full His6-tagged entry) MGVSDVPRDLEVVAATPTSLLISWDAPAVTVRYYRITYGREVQKYSDLGPLYIYQEFTVPGSKSTATISGLKPGVDYTITVYAVTGSGESPASSSPISINYRTEIDKPSQHHHHHH")
0.000501
>>> value_measured("ADX_6727_G05 (I43S/K85A) (designed binder, Full His6-tagged entry) MGVSDVPRDLEVVAATPTSLLISWDAPAVTVRYYRITYGREVQKYSDLGPLYSYQEFTVPGSKSTATISGLKPGVDYTITVYAVTGSGESPASSAPISINYRTEIDKPSQHHHHHH")
0.0116
>>> value_measured("ADX_6727_D02 (R30N) (designed binder, Full His6-tagged entry) MGVSDVPRDLEVVAATPTSLLISWDAPAVTVRYYRITYGNEVQKYSDLGPLYIYQEFTVPGSKSTATISGLKPGVDYTITVYAVTGSGESPASSKPISINYRTEIDKPSQHHHHHH")
0.00118
>>> value_measured("ADX_6727_B09 (L38T/K85T) (designed binder, Full His6-tagged entry) MGVSDVPRDLEVVAATPTSLLISWDAPAVTVRYYRITYGREVQKYSDTGPLYIYQEFTVPGSKSTATISGLKPGVDYTITVYAVTGSGESPASSTPISINYRTEIDKPSQHHHHHH")
0.0262
>>> value_measured("ADX_6727_C07 (R30A/K85S) (designed binder, Full His6-tagged entry) MGVSDVPRDLEVVAATPTSLLISWDAPAVTVRYYRITYGAEVQKYSDLGPLYIYQEFTVPGSKSTATISGLKPGVDYTITVYAVTGSGESPASSSPISINYRTEIDKPSQHHHHHH")
0.00334
>>> value_measured("ADX_6727_B04 (Y35S/K85S) (designed binder, Full His6-tagged entry) MGVSDVPRDLEVVAATPTSLLISWDAPAVTVRYYRITYGREVQKSSDLGPLYIYQEFTVPGSKSTATISGLKPGVDYTITVYAVTGSGESPASSSPISINYRTEIDKPSQHHHHHH")
0.00142
>>> value_measured("ADX_6727_F03 (I43Y as printed in Table 4; I43A in Table 7) (designed binder, Full His6-tagged entry) MGVSDVPRDLEVVAATPTSLLISWDAPAVTVRYYRITYGREVQKYSDLGPLYAYQEFTVPGSKSTATISGLKPGVDYTITVYAVTGSGESPASSKPISINYRTEIDKPSQHHHHHH")
0.0038
>>> value_measured("ADX_6727_G10 (Y35S/K85A) (designed binder, Full His6-tagged entry) MGVSDVPRDLEVVAATPTSLLISWDAPAVTVRYYRITYGREVQKSSDLGPLYIYQEFTVPGSKSTATISGLKPGVDYTITVYAVTGSGESPASSAPISINYRTEIDKPSQHHHHHH")
0.00138

Consider the record given below.
IN: Respond only with koff recorded for ADX_6727_F04 (Y44A/K85A) (designed binder, Full His6-tagged entry) MGVSDVPRDLEVVAATPTSLLISWDAPAVTVRYYRITYGREVQKYSDLGPLYIAQEFTVPGSKSTATISGLKPGVDYTITVYAVTGSGESPASSAPISINYRTEIDKPSQHHHHHH
OUT: 0.00694
